# tgt: T1, TNFR1 (Homo sapiens, UniProt P19438)
# T1 chain: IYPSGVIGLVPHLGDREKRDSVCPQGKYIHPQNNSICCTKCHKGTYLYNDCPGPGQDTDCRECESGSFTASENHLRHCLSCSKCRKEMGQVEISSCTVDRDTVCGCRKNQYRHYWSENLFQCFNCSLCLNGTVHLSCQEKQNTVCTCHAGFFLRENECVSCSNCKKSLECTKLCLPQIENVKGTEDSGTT
# experiment.summary: yeast display SC50
assay.endpoint: apparent Kd (screen) (nM)

L40C (designed binder) SMEEEVEKAAKEYEKKKKEAIEKHLEKLKAKDKEAAERFCKELEEAAKEYAKDEAKTMSEEEAKRRAKKYKEKVLLSELSEEEQKEIKEAEEKLVRTILKYVEEAAK ... 0.446
E45L (designed binder) SMEEEVEKAAKEYEKKKKEAIEKHLEKLKAKDKEAAERFLKELELAAKEYAKDEAKTMSEEEAKRRAKKYKEKVLLSELSEEEQKEIKEAEEKLVRTILKYVEEAAK ... 1.69
K18I (designed binder) SMEEEVEKAAKEYEKKKIEAIEKHLEKLKAKDKEAAERFLKELEEAAKEYAKDEAKTMSEEEAKRRAKKYKEKVLLSELSEEEQKEIKEAEEKLVRTILKYVEEAAK ... 0.653
K29Y (designed binder) SMEEEVEKAAKEYEKKKKEAIEKHLEKLYAKDKEAAERFLKELEEAAKEYAKDEAKTMSEEEAKRRAKKYKEKVLLSELSEEEQKEIKEAEEKLVRTILKYVEEAAK ... 0.956

A = E44F (designed binder) SMEEEVEKAAKEYEKKKKEAIEKHLEKLKAKDKEAAERFLKELFEAAKEYAKDEAKTMSEEEAKRRAKKYKEKVLLSELSEEEQKEIKEAEEKLVRTILKYVEEAAK
B = A90H (designed binder) SMEEEVEKAAKEYEKKKKEAIEKHLEKLKAKDKEAAERFLKELEEAAKEYAKDEAKTMSEEEAKRRAKKYKEKVLLSELSEEEQKEIKEHEEKLVRTILKYVEEAAK
C = K29M (designed binder) SMEEEVEKAAKEYEKKKKEAIEKHLEKLMAKDKEAAERFLKELEEAAKEYAKDEAKTMSEEEAKRRAKKYKEKVLLSELSEEEQKEIKEAEEKLVRTILKYVEEAAK
Order the records so the highest apparent Kd (screen) appears first and the lowest last. # the answer lists labels in the order requested
A, C, B
